- Test system: DeltatarO mutant
- assay.protocol: S. aureus survival, RN4220 and DeltatarO strains – OD600, teichoic acid synthesis inhibitors, primary screen (AID 463173)
- measurement.setup: S. aureus RN4220 wild type/DeltatarO growth, OD600, 18 h, active compounds read low, screened at 18.75 µg/mL (by protocol)
The campaign covered roughly 52,000 compounds. About 4,300 (8.3%) were called active. The entries come from a sample that favours actives as a whole.
Known survival of a selection of compounds
readout.kind: survival (%)

>  <compound>
COc1cccc(CNC(=O)CSc2nc3ccccc3nc2Cc2ccc(C)cc2)c1OC

>  <readout.kind>
survival

>  <assay.result>
74

$$$$
>  <compound>
CCC(Sc1nc2cc(OC)c(OC)cc2c(=O)n1Cc1ccc(Cl)cc1)C(=O)NCCOC (stereo not given)

>  <readout.kind>
survival

>  <assay.result>
91

$$$$
>  <compound>
Cc1ccc(NC(=O)C(=O)NCC(c2ccc3c(c2)OCO3)N2CCN(C)CC2)cc1C (stereo not given)

>  <readout.kind>
survival

>  <assay.result>
68

$$$$
>  <compound>
Cc1cccc(OCC(=O)N2CCC(c3nc4ccccc4o3)CC2)c1C

>  <readout.kind>
survival

>  <assay.result>
81

$$$$
>  <compound>
COc1ccccc1OCC(=O)N1CCC(c2nc3ccccc3o2)CC1

>  <readout.kind>
survival

>  <assay.result>
0

$$$$
>  <compound>
CCC(Sc1nc2nccnc2c(=O)n1Cc1ccc(C)cc1)C(=O)NC1CCCCC1 (stereo not given)

>  <readout.kind>
survival

>  <assay.result>
39

$$$$
>  <compound>
CCC(Sc1nc2nccnc2c(=O)n1Cc1ccc(OC)cc1)C(=O)NC1CCCCC1 (stereo not given)

>  <readout.kind>
survival

>  <assay.result>
104

$$$$
>  <compound>
CCC(Sc1nc2nccnc2c(=O)n1Cc1ccc(F)cc1)C(=O)NC1CCCCC1 (stereo not given)

>  <readout.kind>
survival

>  <assay.result>
42

$$$$
>  <compound>
CC(=O)Nc1ccccc1N1CCCCC1

>  <readout.kind>
survival

>  <assay.result>
100

$$$$
>  <compound>
Cc1ccc(CSc2nc3cc(C(=O)NC4CCCC4)ccc3c(=O)n2Cc2ccccc2)cc1

>  <readout.kind>
survival

>  <assay.result>
57

$$$$
